The reported numbers originate from paper PMC11357256.

Test system: Nthy-ori 3-1
assay_explanation: MTT cell viability assay, Nthy-ori 3-1 normal thyroid epithelial cells
Assay type: cell-based
measurement_parameters: Homo sapiens, 48 h

# compound, display_unit, measurement_qualifier, IC50
records = [
    ("CC1(C)CC[C@]2(C(=O)O[C@@H]3O[C@H](CO)[C@@H](O)[C@H](O)[C@H]3O)CC[C@]3(C)C(=CC[C@@H]4[C@@]5(C)CC[C@H](O[C@@H]6O[C@H](C(=O)O)[C@@H](O)[C@H](O)[C@H]6O)C(C)(C)[C@@H]5CC[C@]43C)[C@@H]2C1", "µg/mL", ">", 100),
    ("CC1(C)CCC2(C(=O)O)CCC3(C)C(=CCC4C5(C)CCC(OC6OC(C(=O)O)C(O)C(OC7OCC(O)C(O)C7O)C6O)C(C)(C)C5CCC43C)C2C1 (stereo not shown)", "µg/mL", "=", 64.4),
    ("CC1(C)CCC2(C(=O)O)CCC3(C)C(=CCC4C5(C)CCC(OC6OC(C(=O)O)C(O)C(O)C6O)C(C)(C)C5CCC43C)C2C1 (stereo not shown)", "µg/mL", "=", 30.1),
    ("CC1(C)CC[C@]2(C(=O)O)CC[C@]3(C)C(=CC[C@@H]4[C@@]5(C)CC[C@H](O)C(C)(C)[C@@H]5CC[C@]43C)[C@@H]2C1", "µg/mL", "=", 71.6),
]
